// data source = patent US6583147B1

target under test: Phosphodiesterase-3 enzyme (PDE 3) (Oryctolagus cuniculus)
Sequence (G1ST54 1-1128): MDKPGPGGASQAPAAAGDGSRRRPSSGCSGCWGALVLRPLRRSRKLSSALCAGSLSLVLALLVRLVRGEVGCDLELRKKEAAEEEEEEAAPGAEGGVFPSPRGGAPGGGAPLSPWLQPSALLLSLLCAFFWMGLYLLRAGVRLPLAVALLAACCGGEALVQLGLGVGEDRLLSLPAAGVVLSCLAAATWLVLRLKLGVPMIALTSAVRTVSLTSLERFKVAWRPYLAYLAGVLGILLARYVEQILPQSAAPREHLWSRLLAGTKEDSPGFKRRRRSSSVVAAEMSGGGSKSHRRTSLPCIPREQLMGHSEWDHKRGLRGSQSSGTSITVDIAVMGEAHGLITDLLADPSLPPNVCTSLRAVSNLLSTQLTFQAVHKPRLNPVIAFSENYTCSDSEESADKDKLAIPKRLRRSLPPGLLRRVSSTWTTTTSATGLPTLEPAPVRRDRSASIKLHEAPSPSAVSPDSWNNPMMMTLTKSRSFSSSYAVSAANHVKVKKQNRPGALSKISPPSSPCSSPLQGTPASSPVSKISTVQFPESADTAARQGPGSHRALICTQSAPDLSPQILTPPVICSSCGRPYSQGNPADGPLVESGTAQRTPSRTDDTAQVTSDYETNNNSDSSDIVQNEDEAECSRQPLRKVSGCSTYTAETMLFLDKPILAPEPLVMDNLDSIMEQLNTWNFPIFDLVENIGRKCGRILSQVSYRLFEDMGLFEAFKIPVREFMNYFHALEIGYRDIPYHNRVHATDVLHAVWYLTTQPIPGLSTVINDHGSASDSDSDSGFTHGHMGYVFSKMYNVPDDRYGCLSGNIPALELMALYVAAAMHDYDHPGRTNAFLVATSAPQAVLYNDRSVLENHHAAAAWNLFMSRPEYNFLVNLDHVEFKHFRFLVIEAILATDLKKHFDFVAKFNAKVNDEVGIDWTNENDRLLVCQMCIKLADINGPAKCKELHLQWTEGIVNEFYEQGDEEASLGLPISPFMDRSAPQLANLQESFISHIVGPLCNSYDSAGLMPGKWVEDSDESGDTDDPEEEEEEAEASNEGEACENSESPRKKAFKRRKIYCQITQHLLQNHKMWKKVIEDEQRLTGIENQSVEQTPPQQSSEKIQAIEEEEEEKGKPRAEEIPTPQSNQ
Please use yes (1) for IC50 under 70 µM and no (0) for everything else, ties included.

Answered cases to consult:
CCCOc1ccc(S(=O)(=O)NCc2cccnc2)cc1-c1nc2c(CCC)nn(C)c2c(=O)[nH]1: yes (1)
CCOc1ccc(S(=O)(=O)NCc2ccccn2)cc1-c1nc2c(CC(C)C)nn(C)c2c(=O)[nH]1: no (0)
CCCc1nn(CC)c2c(=O)[nH]c(-c3cc(S(=O)(=O)NCCC4CCCN4C)ccc3OCC)nc12 (stereo not shown): no (0)
CCCc1nn(CC)c2c(=O)[nH]c(-c3cc(S(=O)(=O)Nc4ccc(F)cc4)ccc3OCC)nc12: no (0)
CCCOc1ccc(S(=O)(=O)Nc2cccnc2)cc1-c1nc2c(CCC)nn(C)c2c(=O)[nH]1: yes (1)

Moving on to the next molecule.
Exercise: Please state whether IC50 is below 70 µM for `CCOc1ccc(S(=O)(=O)NCc2ccncc2)cc1-c1nc2c(CC(C)C)nn(C)c2c(=O)[nH]1`
Key: no (0)
